System: 324938-238-R-J1-PDC complex spheroid viability;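 further: spheroids also contain HUVEC and human MSCs and agents combined with iadademstat; spheroids exposed to agents for 7 days before readout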
PROTOCOL_DESCRIPTION: Anticancer human tumor 324938-238-R-J1-PDC patient-derived bladder carcinoma cell line growth inhibition
TEST_SETTINGS: second compound 10 µM; first compound 1 µM; active compounds read low
Property: viability, T/C; scope: individual compounds

COMPOUND	UNIT_STRING	viability, T/C
CC1(C)CCC(CN2CCN(c3ccc(C(=O)NS(=O)(=O)c4ccc(NCC5CCOCC5)c([N+](=O)[O-])c4)c(Oc4cnc5[nH]ccc5c4)c3)CC2)=C(c2ccc(Cl)cc2)C1 + NC1CC1c1ccc(-c2cccc(O)c2)cc1	%	56.8
COc1cc(Nc2ncc3c(n2)-c2ccc(Cl)cc2C(c2c(F)cccc2OC)=NC3)ccc1C(=O)O + NC1CCC(NC2CC2c2ccccc2)CC1	%	23.1
Nc1ncn(C2CC(O)C(CO)O2)c(=O)n1 (stereo not drawn) + NC1CC1c1ccc(-c2cccc(O)c2)cc1	%	41.4
Nc1ncn(C2CC(O)C(CO)O2)c(=O)n1 (stereo not drawn) + NC1CCC(NC2CC2c2ccccc2)CC1	%	37
CC(C)c1c(-c2ccccc2)nc2c(C#N)c[nH]n2c1=O + NC1CC1c1ccc(-c2cccc(O)c2)cc1	%	88.9
CC1COCCN1c1cc(-c2ccnn2C)c2ccnc(-c3ccn[nH]3)c2n1 (stereo not drawn) + NC1CC1c1ccc(-c2cccc(O)c2)cc1	%	13.7
CC1COCCN1c1cc(C2(S(C)(=N)=O)CC2)nc(-c2ccnc3[nH]ccc23)n1 (stereo not drawn) + NC1CCC(NC2CC2c2ccccc2)CC1	%	43.7
O=C(c1cc(Cc2n[nH]c(=O)c3ccccc23)ccc1F)N1CCN(C(=O)C2CC2)CC1 + NC1CC1c1ccc(-c2cccc(O)c2)cc1	%	49.9
CC1COCCN1c1cc(-c2ccnn2C)c2ccnc(-c3ccn[nH]3)c2n1 (stereo not drawn) + NC1CCC(NC2CC2c2ccccc2)CC1	%	14.3
COc1cc(Nc2ncc3c(n2)-c2ccc(Cl)cc2C(c2c(F)cccc2OC)=NC3)ccc1C(=O)O + NC1CC1c1ccc(-c2cccc(O)c2)cc1	%	25.8
COc1ccc([C@@H](O)c2cc(-c3ncnc4cc(N5CCOCC5)ccc34)c(F)cc2Cl)nn1 + NC1CC1c1ccc(-c2cccc(O)c2)cc1	%	38.5
COc1ccc([C@@H](O)c2cc(-c3ncnc4cc(N5CCOCC5)ccc34)c(F)cc2Cl)nn1 + NC1CCC(NC2CC2c2ccccc2)CC1	%	50.2
O=C(c1cc(Cc2n[nH]c(=O)c3ccccc23)ccc1F)N1CCN(C(=O)C2CC2)CC1 + NC1CCC(NC2CC2c2ccccc2)CC1	%	59.3
CC1(C)CCC(CN2CCN(c3ccc(C(=O)NS(=O)(=O)c4ccc(NCC5CCOCC5)c([N+](=O)[O-])c4)c(Oc4cnc5[nH]ccc5c4)c3)CC2)=C(c2ccc(Cl)cc2)C1 + NC1CCC(NC2CC2c2ccccc2)CC1	%	70.4
CC1COCCN1c1cc(C2(S(C)(=N)=O)CC2)nc(-c2ccnc3[nH]ccc23)n1 (stereo not drawn) + NC1CC1c1ccc(-c2cccc(O)c2)cc1	%	36.4
O=C(C=Cn1cnc(-c2cc(C(F)(F)F)cc(C(F)(F)F)c2)n1)NNc1cnccn1 + NC1CCC(NC2CC2c2ccccc2)CC1	%	4.89
CC(C)c1c(-c2ccccc2)nc2c(C#N)c[nH]n2c1=O + NC1CCC(NC2CC2c2ccccc2)CC1	%	75.1
O=C(C=Cn1cnc(-c2cc(C(F)(F)F)cc(C(F)(F)F)c2)n1)NNc1cnccn1 + NC1CC1c1ccc(-c2cccc(O)c2)cc1	%	2.7

Sourced from PubChem BioAssay AID1918935
